Biological target: Beta Secretase enzyme (BACE1) (Homo sapiens, UniProt P56817)
Sequence (P56817 46-501): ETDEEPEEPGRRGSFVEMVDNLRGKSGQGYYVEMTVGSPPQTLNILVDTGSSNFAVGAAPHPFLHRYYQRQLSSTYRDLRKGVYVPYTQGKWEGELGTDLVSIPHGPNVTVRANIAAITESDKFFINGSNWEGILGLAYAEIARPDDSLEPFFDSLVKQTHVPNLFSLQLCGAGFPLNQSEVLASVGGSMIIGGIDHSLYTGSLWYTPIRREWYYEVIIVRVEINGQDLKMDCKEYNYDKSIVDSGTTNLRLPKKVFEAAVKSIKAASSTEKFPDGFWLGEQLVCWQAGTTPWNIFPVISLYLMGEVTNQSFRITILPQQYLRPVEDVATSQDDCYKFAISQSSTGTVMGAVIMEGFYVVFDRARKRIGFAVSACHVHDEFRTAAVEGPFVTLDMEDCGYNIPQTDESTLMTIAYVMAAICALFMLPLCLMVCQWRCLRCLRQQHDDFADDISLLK
Experiment: In vitro enzymatic BACE FRET assay
Format: biochemical
Settings: average IC50, enzyme assay; read-out: BACE1 FRET assay IC50
Measurement Label: IC50 (nM)
Enter your answer as a number in nM; do not include the unit.

Below, each entry is followed by its recorded IC50 result.
[[record]]
smiles_record = "CC1(C)C(N)=N[C@](C)(c2cc(Oc3ncc(C(F)(F)F)cc3Cl)ccc2F)CS1(=O)=O"
readout_value = 603

[[record]]
smiles_record = "NC1=N[C@@](CF)(c2cc(Nc3nccc4cc(Cl)cnc34)ccc2F)CS(=O)(=O)C12CCC2"
readout_value = 3530

[[record]]
smiles_record = "Cc1nc2c(Oc3ccc(F)c([C@]4(C)CS(=O)(=O)C(C)(C)C(N)=N4)c3)nccc2s1"
readout_value = 3490


Now consider the entry below.
GET /value?item= "Cc1cc(Cl)ccc1C(=O)Nc1ccc(F)c([C@]2(C)CS(=O)(=O)C(C)(C)C(N)=N2)c1" &field=IC50 returns 6.52

---

Target: UniProt P56817
Test: In vitro enzymatic BACE FRET assay
Type: biochemical
Details: read-out: BACE1 FRET assay IC50
Binarize IC50 at 3 nM; below is class 1, at or above is class 0.

Solved entries:
[[record]]
molecule = "C[C@@]1(c2cc(NC(=O)c3ccc(Cl)cn3)ccc2F)CS(=O)(=O)C2(CC(F)(F)C2)C(N)=N1 [Example 120]"
cat = "class 1"

[[record]]
molecule = "CC1(C)C(N)=N[C@](C)(c2cc(NC(=O)c3ccc(F)cn3)cnc2F)CS1(=O)=O [Example 399]"
cat = "class 0"

[[record]]
molecule = "Cc1cc(OC(F)F)cnc1C(=O)Nc1ccc(F)c([C@]2(CF)CS(=O)(=O)C3(CCC3)C(N)=N2)c1 [Example 412]"
cat = "class 1"

[[record]]
molecule = "COc1cnc2c(Nc3ccc(F)c(C4(C(F)F)CS(=O)(=O)C(C)(C)C(N)=N4)c3)nccc2c1 (stereo not shown) [Example 62]"
cat = "class 0"

[[record]]
molecule = "CC1(C)C(N)=N[C@](C)(c2cc(NC(=O)c3cnc(C(F)(F)F)cn3)ccc2F)CS1(=O)=O [Example 21]"
cat = "class 0"


Determine whether this molecule shows IC50 lower than 3 nM (ties excluded): Cc1cc(OCC2CC2)cnc1C(=O)Nc1ccc(F)c([C@]2(CF)CS(=O)(=O)C3(CCC3)C(N)=N2)c1 [Example 371]
class 1

Is it true that IC50 reported for COc1cc(F)c2c(Nc3ccc(F)c([C@]4(C)CS(=O)(=O)C(C)(C)C(N)=N4)c3)ncnc2c1 [Example 53] is less than 3 nM?
class 0

---

Tested on: Aβ40 in conditioned medium of cells stably expressing Amyloid Precursor Protein (APP)
Assay: In vitro BACE cell-based assay (HEK cell assay), Aβ40 sandwich ELISA
Settings: Homo sapiens, HEK293
// reported pIC50 per item
API: returns pIC50 as number; meaning -log10 of concentration in mol/L.

[[record]]
smiles_record = "CCc1c(C(=O)Nc2ccc(F)c([C@]3(CF)CS(=O)(=O)C(C)(C)C(N)=N3)c2)nc2ccc(Cl)cn12"
readout_value = 7.63

[[record]]
smiles_record = "Cc1cc(Cl)cnc1C(=O)Nc1ccc(F)c([C@]23C[C@H]2S(=O)(=O)C(C)(C)C(N)=N3)c1"
readout_value = 6.06

[[record]]
smiles_record = "CC1(C)C(N)=N[C@](CF)(c2cc(Nc3nccc4cc(C#N)cnc34)ccc2F)CS1(=O)=O"
readout_value = 8.28

[[record]]
smiles_record = "COc1cnc(C(=O)Nc2ccc(F)c([C@]3(CF)CS(=O)(=O)C(C)(C)C(N)=N3)c2)c(C)c1"
readout_value = 8.01

[[record]]
smiles_record = "Cc1cc(OC(F)F)cnc1C(=O)Nc1cnc(F)c([C@]2(C)CS(=O)(=O)C(C)(C)C(N)=N2)c1"
readout_value = 8.05

[[record]]
smiles_record = "Cc1cc(C(F)F)cnc1C(=O)Nc1ccc(F)c([C@]2(C)CS(=O)(=O)C3(CCC3)C(N)=N2)c1"
readout_value = 8.20


Next compound, please.
Per the records, this compound ( "CC1(C)C(N)=N[C@](CF)(c2cc(NC(=O)c3ncc(F)cc3F)ccc2F)CS1(=O)=O" ) has pIC50 equal to 7.74
